Molecular target: ATP-binding cassette transporter A1 (ABCA1) (UniProt P41233 1-2261, limits assumed)
Sequence (P41233 whole entry): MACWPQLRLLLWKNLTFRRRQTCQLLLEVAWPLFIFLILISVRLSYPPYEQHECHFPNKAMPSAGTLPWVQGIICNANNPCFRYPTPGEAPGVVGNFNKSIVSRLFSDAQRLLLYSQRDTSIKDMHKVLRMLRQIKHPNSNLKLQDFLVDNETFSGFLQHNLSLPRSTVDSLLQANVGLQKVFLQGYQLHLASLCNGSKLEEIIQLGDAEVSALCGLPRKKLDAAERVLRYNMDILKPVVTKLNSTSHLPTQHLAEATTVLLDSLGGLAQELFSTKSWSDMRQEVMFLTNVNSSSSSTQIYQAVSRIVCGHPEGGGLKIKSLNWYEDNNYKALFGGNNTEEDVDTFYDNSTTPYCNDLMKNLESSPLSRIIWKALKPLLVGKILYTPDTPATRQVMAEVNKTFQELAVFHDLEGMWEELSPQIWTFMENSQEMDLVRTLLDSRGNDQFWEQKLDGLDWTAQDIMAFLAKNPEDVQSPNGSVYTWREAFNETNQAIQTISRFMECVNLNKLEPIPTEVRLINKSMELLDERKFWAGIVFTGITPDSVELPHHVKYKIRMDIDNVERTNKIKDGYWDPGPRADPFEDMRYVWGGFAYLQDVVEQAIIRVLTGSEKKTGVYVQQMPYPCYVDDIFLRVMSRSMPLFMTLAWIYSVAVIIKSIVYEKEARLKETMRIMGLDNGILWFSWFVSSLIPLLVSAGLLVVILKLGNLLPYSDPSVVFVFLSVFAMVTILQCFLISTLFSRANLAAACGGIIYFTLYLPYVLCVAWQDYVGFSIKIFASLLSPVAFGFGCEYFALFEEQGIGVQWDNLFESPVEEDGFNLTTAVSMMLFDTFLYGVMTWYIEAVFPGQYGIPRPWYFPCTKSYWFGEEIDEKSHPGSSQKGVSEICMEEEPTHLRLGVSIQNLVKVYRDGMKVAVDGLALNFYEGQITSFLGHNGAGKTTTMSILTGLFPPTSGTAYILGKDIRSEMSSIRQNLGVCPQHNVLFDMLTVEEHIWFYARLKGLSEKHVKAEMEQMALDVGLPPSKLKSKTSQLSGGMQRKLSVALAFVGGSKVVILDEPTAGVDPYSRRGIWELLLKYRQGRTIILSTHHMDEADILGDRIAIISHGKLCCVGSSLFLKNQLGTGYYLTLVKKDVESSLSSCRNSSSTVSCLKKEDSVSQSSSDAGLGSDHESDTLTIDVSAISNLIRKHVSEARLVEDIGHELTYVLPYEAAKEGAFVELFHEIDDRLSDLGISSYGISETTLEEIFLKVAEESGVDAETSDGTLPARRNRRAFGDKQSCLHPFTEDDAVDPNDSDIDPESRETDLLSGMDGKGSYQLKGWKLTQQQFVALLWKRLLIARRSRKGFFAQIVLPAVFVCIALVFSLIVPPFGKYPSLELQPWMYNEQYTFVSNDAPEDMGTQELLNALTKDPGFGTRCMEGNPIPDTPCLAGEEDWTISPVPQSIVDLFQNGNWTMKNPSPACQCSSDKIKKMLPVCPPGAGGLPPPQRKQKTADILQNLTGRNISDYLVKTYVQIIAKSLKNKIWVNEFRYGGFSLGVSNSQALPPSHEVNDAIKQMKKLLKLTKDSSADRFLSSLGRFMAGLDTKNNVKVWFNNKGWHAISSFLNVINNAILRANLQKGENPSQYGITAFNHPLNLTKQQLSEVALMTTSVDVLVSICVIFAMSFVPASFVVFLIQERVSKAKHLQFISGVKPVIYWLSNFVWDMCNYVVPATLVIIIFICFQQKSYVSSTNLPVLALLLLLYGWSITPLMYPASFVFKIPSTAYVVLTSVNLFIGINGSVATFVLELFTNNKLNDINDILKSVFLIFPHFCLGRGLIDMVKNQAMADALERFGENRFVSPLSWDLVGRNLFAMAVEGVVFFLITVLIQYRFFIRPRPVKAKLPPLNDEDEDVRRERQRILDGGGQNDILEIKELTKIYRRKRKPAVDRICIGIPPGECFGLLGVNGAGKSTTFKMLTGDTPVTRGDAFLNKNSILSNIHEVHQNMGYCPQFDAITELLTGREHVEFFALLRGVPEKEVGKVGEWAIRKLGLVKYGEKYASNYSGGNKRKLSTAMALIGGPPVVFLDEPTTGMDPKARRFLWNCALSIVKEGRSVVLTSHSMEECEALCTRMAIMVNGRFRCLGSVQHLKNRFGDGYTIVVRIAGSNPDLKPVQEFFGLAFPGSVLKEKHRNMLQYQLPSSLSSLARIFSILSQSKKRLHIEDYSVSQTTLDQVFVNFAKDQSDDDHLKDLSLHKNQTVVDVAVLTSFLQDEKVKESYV
Assay: cell-based or functional assay
Give measured % cholesterol efflux/4 hours at 1.0 µg/ml for each item. Keep answers brief.
// unit must come after the numeric part

Sample records with % cholesterol efflux/4 hours at 1.0 µg/ml:
Report measured % cholesterol efflux/4 hours at 1.0 µg/ml; entry is ELREKLEAWFELFAEFFARFKS [N356-4]
1.89%

Report measured % cholesterol efflux/4 hours at 1.0 µg/ml; entry is ELREKLEAWFEAFEEFFARFKS [N356-1]
0.23%

Report measured % cholesterol efflux/4 hours at 1.0 µg/ml; entry is ELREKLEAWRELFEEFFARFKS [N356-2]
0.02%

With those in mind, consider the next binder.
Report measured % cholesterol efflux/4 hours at 1.0 µg/ml; entry is ELRAKLEAWFEAFAEFFARF [N356-7]
1.17%
